Target: Axl kinase (Homo sapiens, UniProt P30530)
Sequence (P30530 26-894): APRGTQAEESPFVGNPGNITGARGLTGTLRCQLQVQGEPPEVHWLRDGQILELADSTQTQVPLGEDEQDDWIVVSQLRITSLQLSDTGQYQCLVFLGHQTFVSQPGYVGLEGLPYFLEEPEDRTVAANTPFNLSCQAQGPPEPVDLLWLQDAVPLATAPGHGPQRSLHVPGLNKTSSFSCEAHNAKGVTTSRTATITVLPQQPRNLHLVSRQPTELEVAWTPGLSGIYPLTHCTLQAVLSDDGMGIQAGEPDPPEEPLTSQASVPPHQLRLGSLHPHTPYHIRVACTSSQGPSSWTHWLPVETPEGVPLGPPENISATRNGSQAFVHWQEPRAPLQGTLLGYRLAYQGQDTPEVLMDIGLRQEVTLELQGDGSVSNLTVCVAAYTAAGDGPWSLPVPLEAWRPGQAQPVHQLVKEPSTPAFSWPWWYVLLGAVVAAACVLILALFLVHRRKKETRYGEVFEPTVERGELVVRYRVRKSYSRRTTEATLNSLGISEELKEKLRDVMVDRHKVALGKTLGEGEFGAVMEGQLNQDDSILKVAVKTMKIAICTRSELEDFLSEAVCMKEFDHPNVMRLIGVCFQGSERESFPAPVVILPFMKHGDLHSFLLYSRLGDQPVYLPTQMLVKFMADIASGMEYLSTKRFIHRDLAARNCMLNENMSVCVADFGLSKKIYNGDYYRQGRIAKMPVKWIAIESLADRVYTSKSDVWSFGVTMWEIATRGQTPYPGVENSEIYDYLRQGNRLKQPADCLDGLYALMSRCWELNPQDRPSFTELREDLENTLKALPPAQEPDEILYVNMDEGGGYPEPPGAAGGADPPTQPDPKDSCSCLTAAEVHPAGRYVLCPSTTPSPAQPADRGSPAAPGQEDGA
metric: IC50 (µM)
Write the number in µM without appending the unit.

Entry CC(=O)NS(=O)(=O)c1ccc(NC(=S)N2CCN(c3ncnc4[nH]c5cc(C(F)(F)F)c(Cl)cc5c34)CC2)cc1 [Compound 1-1] ; IC50 = 9.8

* * *

test system: OVCAR-3 (ovary); experiment: in vitro cytotoxicity assay (Cell-Titer-Glo), OVCAR-3; type: cell-based; settings: Homo sapiens, OVCAR-3, 96 h; Example 20; 4 days; read-out: Cell-based IC50 values OVCAR-3
pIC50: −log10 of the molar value.
Assign True whenever pIC50 does not fall below 4; assign False whenever it does.

Please review the entries below; each comes with its answer.
INSERT INTO results (smiles_input, label_value) VALUES
  ('COc1cc2[nH]c3ncnc(N4CCN(C(=S)Nc5ccc(S(=O)(=O)N6CCOCC6)cc5)CC4)c3c2cc1OC', 'False'),
  ('COc1cc2[nH]c3ncnc(N4CCN(C(=S)Nc5ccc(S(N)(=O)=O)cc5)CC4)c3c2cc1OC', 'False'),
  ('CC(=O)NS(=O)(=O)c1ccc(NC(=S)N2CCN(c3ncnc4[nH]c5ccc(Cl)cc5c34)CC2)cc1', 'True'),
  ('COc1cc2[nH]c3ncnc(N4CCN(C(=S)Nc5ccc(S(=O)(=O)NC(C)=O)cc5)CC4)c3c2cc1OC', 'True');

Continue with the molecule presented below.
Problem: Could you tell me if the measured pIC50 of CC(=O)NS(=O)(=O)c1ccc(NC(=S)N2CCN(c3ncnc4[nH]c5cc(C(F)(F)F)c(Cl)cc5c34)CC2)cc1 reaches 4 or more?
Result: True

* * *

IC50 for assorted compounds
Target: aurora-2 kinase (Homo sapiens, UniProt O14965)
Construct: purchased Upstate, Lake Placid, N.Y; host or cells: sf9 cells
Sequence (O14965 1-403): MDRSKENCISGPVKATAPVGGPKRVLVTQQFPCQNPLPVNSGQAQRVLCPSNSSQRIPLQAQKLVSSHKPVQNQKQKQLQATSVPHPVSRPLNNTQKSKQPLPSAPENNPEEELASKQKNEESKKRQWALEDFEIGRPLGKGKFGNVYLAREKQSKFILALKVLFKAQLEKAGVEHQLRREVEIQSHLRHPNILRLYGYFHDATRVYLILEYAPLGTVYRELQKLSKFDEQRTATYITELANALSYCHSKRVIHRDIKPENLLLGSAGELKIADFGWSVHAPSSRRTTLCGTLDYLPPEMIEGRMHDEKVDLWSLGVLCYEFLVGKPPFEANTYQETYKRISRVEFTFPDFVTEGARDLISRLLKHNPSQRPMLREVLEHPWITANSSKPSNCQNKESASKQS
Assay: aurora-2 kinase inhibition assay (Kinase-Glo, ATP remaining)
Type: biochemical
Details: Example 54, Table 8; 3 μM ATP; read-out: Aurora-2 Inhibition, IC50
Write the number in nM without appending the unit.

Solved cases below.
INSERT INTO results (compound, metric, value_unit, observed_value) VALUES
  ('COc1ccc2c(c1)[nH]c1ncnc(N3CCN(C(=S)Nc4ccc(S(=O)(=O)Nc5ccc(F)cc5)cc4)CC3)c12 [Compound 2-5]', 'IC50', 'nM', 569),
  ('COc1cc2[nH]c3ncnc(N4CCN(C(=S)Nc5ccc(S(=O)(=O)Nc6ccc(C(F)(F)F)cc6)cc5)CC4)c3c2cc1OC [Compound 2-4]', 'IC50', 'nM', 153),
  ('COc1cc2[nH]c3ncnc(N4CCN(C(=S)Nc5ccc(S(=O)(=O)Nc6ccc(F)cc6)cc5)CC4)c3c2cc1OC [Compound 2-3]', 'IC50', 'nM', 110);

Now consider a different compound.
Entry Cc1ccc(NS(=O)(=O)c2ccc(NC(=S)N3CCN(c4ncnc5[nH]c6cc(Cl)c(N7CCOCC7)cc6c45)CC3)cc2)cc1 [Compound 2-9] ; IC50 = 837

* * *

pIC50 for assorted molecules
test system: U2-OS (osteosarcoma); test: in vitro cytotoxicity assay (Cell-Titer-Glo), U2-OS; type: cell-based; details: Homo sapiens, U2OS, 96 h; Table 9; 4 days; read-out: IC50 U2-OS
The meaning of pIC50 here: minus log10 of the concentration in molar units.

INSERT INTO measurements (smiles_input, observed_value) VALUES
  ('Cc1ccc(NS(=O)(=O)c2ccc(NC(=S)N3CCN(c4ncnc5[nH]c6cc(Cl)c(N7CCOCC7)cc6c45)CC3)cc2)cc1', 5.07),
  ('COc1cc2[nH]c3ncnc(N4CCN(C(=S)Nc5ccc(S(=O)(=O)Nc6ccc(F)cc6)cc5)CC4)c3c2cc1OC', 5.09);

Now consider a different molecule.
Measured pIC50 for this entry COc1ccc2c(c1)[nH]c1ncnc(N3CCN(C(=S)Nc4ccc(S(=O)(=O)Nc5ccc(F)cc5)cc4)CC3)c12 on U2-OS (osteosarcoma): 5.07

* * *

test system: MCF-7 (breast); test: in vitro cytotoxicity assay (Cell-Titer-Glo), MCF-7; format: cell-based; details: Homo sapiens, MCF7, 96 h; Example 20; 4 days; read-out: Cell-based IC50 values MCF-7
metric: log10 of IC50 (log10 of the value in µM)
Remember, log10 of IC50, in µM.

Solved cases below.
INSERT INTO results (molecule, system_name, observed_value) VALUES
  ('COc1cc2[nH]c3ncnc(N4CCN(C(=S)Nc5ccc(S(=O)(=O)N6CCOCC6)cc5)CC4)c3c2cc1OC [Compound 1-26]', 'MCF-7 (breast)', 1.17),
  ('CC(=O)NS(=O)(=O)c1ccc(NC(=S)N2CCN(c3ncnc4[nH]c5ccc(Cl)cc5c34)CC2)cc1 [Compound 1-3]', 'MCF-7 (breast)', 2.32),
  ('COc1cc2[nH]c3ncnc(N4CCN(C(=S)Nc5ccc(NC(=O)C6CC6)cc5)CC4)c3c2cc1OC [Compound 1-34]', 'MCF-7 (breast)', 1.89),
  ('COc1cc2[nH]c3ncnc(N4CCN(C(=S)Nc5ccc(S(C)(=O)=O)cc5)CC4)c3c2cc1OC [Compound 1-115]', 'MCF-7 (breast)', 1.94),
  ('COc1cc2[nH]c3ncnc(N4CCN(C(=S)Nc5ccc(S(=O)(=O)NC(C)=O)cc5)CC4)c3c2cc1OC [Compound 1-2]', 'MCF-7 (breast)', 2.10);

Entry COc1cc2c(cc1O)[nH]c1ncnc(N3CCN(C(=S)Nc4ccc(S(=O)(=O)NC(C)=O)cc4)CC3)c12 [Compound 1-8] ; log10 of IC50 = 1.92

Entry COc1cc2[nH]c3ncnc(N4CCN(C(=S)Nc5ccc(NC(C)=O)cc5)CC4)c3c2cc1OC [Compound 1-42] ; log10 of IC50 = 0.66

Entry CC(=O)NS(=O)(=O)c1ccc(NC(=S)N2CCN(c3ncnc4[nH]c5cc(F)ccc5c34)CC2)cc1 [Compound 1-4] ; log10 of IC50 = 2.40

Entry CC(=O)NS(=O)(=O)c1ccc(NC(=S)N2CCN(c3ncnc4[nH]c5cc(C(F)(F)F)c(Cl)cc5c34)CC2)cc1 [Compound 1-1] ; log10 of IC50 = 1.16

Where these numbers come from: patent US20080207632A1
